Tested on: SNB-75
Assay: NCI tumour cell line growth inhibition, 48 h
Activity calls are given as the source filed them. Cut-off read from the data, not from the text of the source: active = GI50 up to about 1.1 µM and inactive = higher.
observable: GI50

compound	GI50
O=C(NCCO)c1cc2c(cn1)[nH]c1ccccc12	69.5 µM (inactive)

Parameters: items (list). Returns: GI50 for each item.
1. COc1ccc(N(CN2C(=O)CCC2C(=O)O)C(C)=O)cc1 (stereo not given)
2. N/C(=N\O)N/N=C\c1c(O)cc(O)cc1O
3. Clc1cc(Cl)cc(C2ON=C(c3ccccc3)N2C23CC4CC(CC(C4)C2)C3)c1 (stereo not given)

Resp:
["> 100 µM (inactive)", "> 47.6 µM (inactive)", "> 10 µM (inactive)"]

Parameters: items (list). Returns: GI50 for each item.
1. O=P(O)(O)C=C=C1CCCCC1
2. COc1cc(C(=O)CC2(O)C(=O)Nc3c(Cl)cc(Cl)cc32)ccc1O (stereo not given)
3. C[C@@H]1C(=O)C[C@H]2C(C)(C)CCC[C@]2(C)[C@@]1(O)CCc1ccoc1
4. Cn1/c(=N\S(=O)(=O)c2ccccc2)n(S(=O)(=O)c2ccccc2)c2ccccc21
5. CC1=C2C(O)C(C(C)C(=O)NCC(C)C)CCC2(C)C=CC1=O (stereo not given)
6. COCCOCCOCCC(=O)NC1CC2CCC1(C)C2(C)C (stereo not given)

Resp:
1: > 100 µM (inactive); 2: 24.2 µM (inactive); 3: > 100 µM (inactive); 4: 54.7 µM (inactive); 5: > 100 µM (inactive); 6: > 100 µM (inactive)

Parameters: items (list). Returns: GI50 for each item.
1. CN(C)CCNC(=O)c1cccc2c(NC(CCCNC(=N)N)C(=O)O)c3ccccc3nc12 (stereo not given)
2. CC1=C(C)SC(=C2Sc3c(n(C)c(=O)n(C)c3=O)S2)S1
3. O=C1CC(c2ccc(Cl)cc2)C2(C(=O)NC(=S)NC2=O)C(c2ccc(Cl)cc2)C1 (stereo not given)
4. CCCCCCCOc1ccc(/C=C\c2cc[n+](CCCCCCCC[n+]3ccc(/C=C\c4ccc(OCCCCCCC)cc4)cc3)cc2)cc1
5. CC(=O)[C@]1(O)Cc2c(O)c3c(c(O)c2[C@@H](OC2CC(N)C(O)C(C)O2)C1)C(=O)c1c(OCc2ccccc2)cccc1C3=O (stereo not given in full)
6. O=c1c(Cc2ccc(Cc3c(O)oc4ccccc4c3=O)cc2)c(O)oc2ccccc12

Resp:
["8.83 µM (inactive)", "20.7 µM (inactive)", "15.1 µM (inactive)", "> 100 µM (inactive)", "3.48 µM (inactive)", "> 100 µM (inactive)"]

Parameters: items (list). Returns: GI50 for each item.
1. Cn1ccnc1Sc1ccc(/C=N/NC(=O)c2ccccc2O)cc1[N+](=O)[O-]
2. O=c1c2nn[nH]c2nc2n1CC(c1ccccc1)S2 (stereo not given)
3. O=c1c2ccccc2nc2n1-c1ccccc1SC2

Resp:
1: > 100 µM (inactive); 2: 72.1 µM (inactive); 3: 17.7 µM (inactive)

Parameters: items (list). Returns: GI50 for each item.
1. COc1cccc([C@@H]2C/C(=N\NC(=O)C(=O)N[C@@H](C)c3ccccc3)c3cc4c(cc3N2)OCO4)c1
2. C=CCCCC1(C)CCCCNC1=O (stereo not given)
3. NC(=O)C[C@H](NC(=O)C1(NC(=O)[C@H](Cc2ccc(CP(=O)(O)O)cc2)NC(=O)C(=O)O)CCCCC1)C(=O)NCCCc1cccc2ccccc12
4. COc1cccc(NC(=O)CC(=O)N2N=C(C)C(/N=N/c3ccc(S(=O)(=O)CCOS(=O)(=O)O)cc3)C2=O)c1 (stereo not given)
5. Cn1c(=O)c2nc3c4ccccc4c(=O)n(C)c3nc2n(C)c1=O
6. CC(=O)c1cc(C)n2c1CS[C@@H]2c1ccccc1

Resp:
1: 22.5 µM (inactive); 2: > 10 µM (inactive); 3: > 10 µM (inactive); 4: 3.27 µM (inactive); 5: > 100 µM (inactive); 6: 65.8 µM (inactive)
